Test system: Plasmodium yoelii
Assay: In vivo efficacy
Design: species or system Plasmodium yoelii (female CF1 mice)
Conditions: oral once daily for 4 days, parasitemia Day 5
Entries annotated with measured ED50 v Py
Measure Name: ED50 v Py (mg/kg/day)

- CC(C)N1CCC(c2ccc(Nc3ccnc4cc(Cl)ccc34)cc2)CC1: 1.1
- CC(C)(C)N1CCN(c2ccc(Nc3ccnc4cc(Cl)ccc34)cc2)CC1: 4.0
- CCN1CCC(c2ccc(Nc3ccnc4cc(Cl)ccc34)cc2)CC1: 1.8
- CCN1CCN(c2ccc(Nc3ccnc4cc(Cl)ccc34)cc2)CC1: 1.5

====

Experiment: Murine microsomal stability
Assay type: in vitro ADME
Details: mouse, pooled liver microsomes, pH 7.4
Measure Name: CLint scaled at 1 μM

- CCN1CCC(c2ccc(Nc3ccnc4cc(Cl)ccc34)cc2)CC1: 497 mL/min/kg
- CCCN1CCC(c2ccc(Nc3ccnc4cc(Cl)ccc34)cc2)CC1: 78 mL/min/kg
- CC(C)N1CCC(c2ccc(Nc3ccnc4cc(Cl)ccc34)cc2)CC1: 124 mL/min/kg
- CC(C)CN1CCN(c2ccc(Nc3ccnc4cc(Cl)ccc34)cc2)CC1: 843 mL/min/kg
- CN1CCN(c2ccc(Nc3ccnc4cc(Cl)ccc34)cc2)CC1: 3780 mL/min/kg
- Clc1ccc2c(Nc3ccc(N4CCN(Cc5ccccc5)CC4)cc3)ccnc2c1: 392 mL/min/kg
- CCN1CCN(c2ccc(Nc3ccnc4cc(Cl)ccc34)cc2)CC1: 2930 mL/min/kg
- CCC(C)N1CCC(c2ccc(Nc3ccnc4cc(Cl)ccc34)cc2)CC1 (stereo not drawn): 98.3 mL/min/kg
- CCCCN1CCC(c2ccc(Nc3ccnc4cc(Cl)ccc34)cc2)CC1: 130 mL/min/kg
